# Assay text: Tmax in mouse at 2 mg/kg, iv and 10 mg/kg, po
# Format: ADME, organism-based
# Test conditions: in vivo
Endpoint label: Tmax (min)
Dear colleague, please return just the value in min, with no unit written.

Prompt: Sample CCNc1nc2sc(-c3cccc([C@H](C)NC(C)=O)c3)nc2c2c1ncn2C — what was its Tmax?
Response: 30

---

# System tested: Inhibitor of nuclear factor kappa-B kinase subunit beta (Homo sapiens, UniProt O14920)
# Sequence (O14920 whole entry): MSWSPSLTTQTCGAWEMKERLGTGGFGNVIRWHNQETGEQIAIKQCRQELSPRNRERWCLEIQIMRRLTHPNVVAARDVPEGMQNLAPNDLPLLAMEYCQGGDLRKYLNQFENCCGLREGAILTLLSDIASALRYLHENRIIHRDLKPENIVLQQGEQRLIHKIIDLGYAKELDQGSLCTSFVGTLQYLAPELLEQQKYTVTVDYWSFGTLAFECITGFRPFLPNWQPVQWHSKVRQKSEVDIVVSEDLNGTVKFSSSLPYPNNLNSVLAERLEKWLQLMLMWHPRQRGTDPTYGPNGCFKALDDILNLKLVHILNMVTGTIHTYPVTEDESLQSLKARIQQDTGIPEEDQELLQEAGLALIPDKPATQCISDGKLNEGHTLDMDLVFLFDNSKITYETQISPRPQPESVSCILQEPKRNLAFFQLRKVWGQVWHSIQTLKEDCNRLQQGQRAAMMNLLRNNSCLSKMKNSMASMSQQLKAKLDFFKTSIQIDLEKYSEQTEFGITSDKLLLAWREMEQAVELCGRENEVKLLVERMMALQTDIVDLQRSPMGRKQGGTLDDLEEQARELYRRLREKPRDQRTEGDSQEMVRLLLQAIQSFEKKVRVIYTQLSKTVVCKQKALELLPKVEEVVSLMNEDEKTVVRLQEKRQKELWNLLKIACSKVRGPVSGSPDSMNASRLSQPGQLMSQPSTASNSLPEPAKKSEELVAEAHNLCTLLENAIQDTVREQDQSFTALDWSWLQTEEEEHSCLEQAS
# Assay text: Inhibition of IKK2
Listed compounds paired with reported IC50

Reference set (4 entries):
CCNc1nc2sc(-c3cccc([C@H](C)NC(=O)c4cc(C)on4)c3)nc2c2c1ncn2C : 78 nM
CCNc1nc2sc(-c3cccc([C@H](C)NC(=O)CNC(C)=O)c3)nc2c2c1ncn2C : 27 nM
CNc1nc2sc(-c3ccc(CNC(C)=O)cc3)nc2c2c1ncn2C : 60 nM
CCNc1nc2sc(-c3cccc([C@@H](C)NC(C)=O)c3)nc2c2c1ncn2C : 55 nM

Moving on to another compound below.
Prompt: Sample COc1nc2sc(-c3cccc([C@H](C)NC(C)=O)c3)nc2c2c1ncn2C — what was its IC50?
Response: > 500 nM
